Source of measurements: PubChem BioAssay AID330

Tested on: P388 leukemia ip, CD2F1 mice, survival T/C
test-method-notes: NCI In Vivo Anticancer Drug Screen. Data for tumor model P388 Leukemia (intraperitoneal) in CD2F1 (CDF1) mice
condition-label: endpoint: median survival time; dose: 60.0 mg/kg/injection; schedule: Q01DX005 (ip); vehicle: saline; higher = longer survival
Inconclusive results and toxic doses are left out.
# key: entry, value: T/C
test-readout: T/C

>  <compound>
O=C(CCl)N1CCN(C/C=C/c2ccccc2)CC1

>  <result>
103 % of control

$$$$
>  <compound>
CN1C(=O)N(C)P123OP1(N(C)C(=O)N1C)(N(C)C(=O)N2C)N(C)C(=O)N3C

>  <result>
103 % of control

$$$$
>  <compound>
O=[N+]([O-])c1ccc(OC2OCC(O)C(O)C2O)cc1 (configuration not stated)

>  <result>
97 % of control

$$$$
>  <compound>
CC(=O)Nc1c(I)c(C(=O)NC2C(O)OC(CO)C(O)C2O)c(I)c(N(C)C(C)=O)c1I (configuration not stated)

>  <result>
100 % of control

$$$$
>  <compound>
CCCN1C(=O)C2C3CCC(O3)C2C1=O (configuration not stated)

>  <result>
100 % of control

$$$$
>  <compound>
COc1ccc(C(=O)Cc2nc3nnc(N)n3[nH]c2=O)cc1

>  <result>
99 % of control

$$$$
>  <compound>
O=CC(O)C(O)C(O)C(O)CO (configuration not stated)

>  <result>
103 % of control

$$$$
>  <compound>
O=C1CCC(O)N1CN1C(=O)CCC1O (configuration not stated)

>  <result>
100 % of control

$$$$
>  <compound>
CCOC(=O)C(C)(CCC(C)=O)C(=O)OCC

>  <result>
100 % of control

$$$$
>  <compound>
COC(=O)c1cn[nH]c1CC(N)=O

>  <result>
100 % of control

$$$$
>  <compound>
COP(=O)(CC(=O)CCCCCO[Si](C)(C)C(C)(C)C)OC

>  <result>
98 % of control

$$$$
>  <compound>
NNC(=O)C(O)C(O)C(=O)NN (configuration not stated)

>  <result>
100 % of control

$$$$
